- Experiment Summary: Solubility of Compound I maleate salt in solvents (saturated solution, HPLC)
- Format: physicochemical
- Condition Parameters: 25 °C, organic solvent or mixture, thermodynamic from solid; solvent Methanol; 25±1° C., 48 hours
Counter-ions that a name gives are not always drawn.
Measurement Name: solubility at 48 h (µg/mL)
Reply with just the number (in µg/mL).

// recorded solubility at 48 h for CC(C)C(=O)N1CCC(c2cc(-c3ccc(NC(=O)c4cn(C(C)C)c(=O)n(-c5ccccn5)c4=O)cc3)c3c(N)ncnn23)CC1 [Compound I maleate salt] : 1640

* * *

- Experiment Summary: Solubility of Compound I maleate salt in solvents (saturated solution, HPLC)
- Assay type: physicochemical
- Condition Parameters: 25 °C, organic solvent or mixture, thermodynamic from solid; solvent 2-Methoxyethanol; 25±1° C., 48 hours
Counter-ions that a name gives are not always drawn.
Measurement Name: solubility at 48 h (µg/mL)
Reply with just the number (in µg/mL).

// recorded solubility at 48 h for CC(C)C(=O)N1CCC(c2cc(-c3ccc(NC(=O)c4cn(C(C)C)c(=O)n(-c5ccccn5)c4=O)cc3)c3c(N)ncnn23)CC1 [Compound I maleate salt] : 5960
